- PROTOCOL DESCRIPTION: Pharmacokinetic profiling of Inhibitor-1 in mice
- Format: in vivo
- PROTOCOL CONDITIONS: C57BL/6J, mouse, plasma, iv, 3 mg/kg, T1/2, Inh-1 3 mg/kg iv; vehicle pretreatment
PROPERTY NAME: half-life (min)
One number for each entry, in min.

Documented half-life of CCOc1ccc(NC(=S)N(CCO)Cc2cc3cc(C)cc(C)c3[nH]c2=O)cc1 [Inh-1] : 42

----------
- PROTOCOL DESCRIPTION: Pharmacokinetic profiling of Inhibitor-1 in mice
- Format: in vivo
- PROTOCOL CONDITIONS: C57BL/6J, mouse, plasma, po, 3 mg/kg, Cmax, Inh-1 3 mg/kg po; vehicle pretreatment
PROPERTY NAME: Cmax
Numeric answer plus unit only.

Documented Cmax of CCOc1ccc(NC(=S)N(CCO)Cc2cc3cc(C)cc(C)c3[nH]c2=O)cc1 : 513 ng/mL

----------
- PROTOCOL DESCRIPTION: Pharmacokinetic profiling of Inhibitor-1 in mice
- Assay type: in vivo
- PROTOCOL CONDITIONS: C57BL/6J, mouse, plasma, iv, 3 mg/kg, AUC0–24 h, Inh-1 3 mg/kg iv; vehicle pretreatment
PROPERTY NAME: AUC(0-t) (ng·h/mL)
Give bare numbers, in ng·h/mL.

Documented AUC(0-t) of CCOc1ccc(NC(=S)N(CCO)Cc2cc3cc(C)cc(C)c3[nH]c2=O)cc1 : 4380

----------
- PROTOCOL DESCRIPTION: Pharmacokinetic profiling of Inhibitor-1 in mice
- Format: in vivo
- PROTOCOL CONDITIONS: C57BL/6J, mouse, plasma, po, 3 mg/kg, Tmax, Inh-1 3 mg/kg po; vehicle pretreatment
PROPERTY NAME: Tmax (min)
Answers are plain numbers, in min.

Documented Tmax of CCOc1ccc(NC(=S)N(CCO)Cc2cc3cc(C)cc(C)c3[nH]c2=O)cc1 [Inh-1] : 30
